FYI, the data here is from patent US20050261130A1.

assay: Birefringence test for anisotropic aggregates on wax-coated slide; format: physicochemical; set-up: key: Y is yes; N is no; settings: surfactant in IPA glyphosate formulation
readout.name: AA (anisotropic aggregate)

The examples below pair each entry with its known result.
[
  {
    "compound": "CCCCCCCCCCN(C)CCCCN(C)CCCCCCCCCC",
    "readout.name": "AA (anisotropic aggregate)",
    "recorded.result": "Y"
  },
  {
    "compound": "CCCCCCCCCCCCOS(=O)(=O)[O-].[Na+] [sodium lauryl sulfate]",
    "readout.name": "AA (anisotropic aggregate)",
    "recorded.result": "Y"
  },
  {
    "compound": "CCCCCCCCCCCCCCCC(=O)O",
    "readout.name": "AA (anisotropic aggregate)",
    "recorded.result": "Y"
  },
  {
    "compound": "CCCCCCCCCCCCCCCCCC(=O)O",
    "readout.name": "AA (anisotropic aggregate)",
    "recorded.result": "Y"
  },
  {
    "compound": "CCCCCCCC/C=C\\CCCCCCCC(=O)O",
    "readout.name": "AA (anisotropic aggregate)",
    "recorded.result": "Y"
  }
]

Exercise: I'd like to know its AA (anisotropic aggregate). The compound in question is CCCCCCCCCCN(C)CCN(C)CCCCCCCCCC
Key: Y

Exercise: I'd like to know its AA (anisotropic aggregate). The compound in question is CCCCC(CC)COP(=O)(O)O (centres unmarked) [2-ethylhexyl phosphate]
Key: N

Exercise: I'd like to know its AA (anisotropic aggregate). The compound in question is CCCCCCCCCCN(C)C [drawing 146 w=10]
Key: N

Exercise: I'd like to know its AA (anisotropic aggregate). The compound in question is CCCCCCCC(=O)O
Key: N

Exercise: I'd like to know its AA (anisotropic aggregate). The compound in question is CCCCCCCCCCCCCCCCN(C)CCN(C)CCCCCCCCCCCCCCCC
Key: Y

Exercise: I'd like to know its AA (anisotropic aggregate). The compound in question is CCCCCCCCCCN(C)CCCN(C)CCCCCCCCCC
Key: Y

---

test: Compatibility of surfactant with diammonium glyphosate concentrate (no phase separation, 50° C., 1 week); assay type: physicochemical; conditions: 31 wt. % a.e. diammonium glyphosate/10 wt. % surfactant; 50° C. oven 1 week
readout.name: Compatible w/31% a.e. diammonium glyphosate at 10 wt % loading

The examples below pair each entry with its known result.
[
  {
    "compound": "CCCCCCCCCCCCCCCCOCCOCCOCCOCCOCCOCCOCCOCCOCCOCCN(C)CCN(C)C",
    "recorded.result": "Yes"
  },
  {
    "compound": "CCCCCCCCNCC(O)C(O)C(O)C(O)CO (stereo not drawn)",
    "recorded.result": "Yes"
  },
  {
    "compound": "CCCCCCCCCCCCN(C)CC(O)C(O)C(O)C(O)CO (stereo not drawn)",
    "recorded.result": "Yes"
  },
  {
    "compound": "CCCCCCCCCCCCCCCCCCN(C)CC(O)C(O)C(O)C(O)CO (stereo not drawn)",
    "recorded.result": "No"
  },
  {
    "compound": "CCCCCCCCCCCCNC(CO)(CO)CO",
    "recorded.result": "No"
  }
]

API: the following record is the query input.
Exercise: I'd like to know its Compatible w/31% a.e. diammonium glyphosate at 10 wt % loading. The compound in question is CCCCCCCCCCCC[N+](C)(C)CC(O)C(O)C(O)C(O)CO (stereo not drawn)
Key: Yes

---

assay: Compatibility of surfactant with potassium glyphosate concentrate (no phase separation, 50° C., 1 week); type: physicochemical; conditions: 37 wt. % a.e. potassium glyphosate/12 wt. % surfactant; 50° C. oven 1 week
readout.name: Compatible w/37% a.e. K + glyphosate at 12 wt % loading

The examples below pair each entry with its known result.
[
  {
    "molecule": "CCCCCCCCCCCCN(C)CC(O)C(O)C(O)C(O)CO (stereo not drawn)",
    "recorded.result": "Yes"
  },
  {
    "molecule": "CN(CCCCCCCCCCCCN(C)CC(O)C(O)C(O)C(O)CO)CC(O)C(O)C(O)C(O)CO (stereo not drawn)",
    "recorded.result": "Yes"
  },
  {
    "molecule": "CCCCCCCCCCCCCCCCOCCOCCOCCOCCOCCOCCOCCOCCOCCOCCNCCCN",
    "recorded.result": "Probably"
  },
  {
    "molecule": "NCCOCCOCCN",
    "recorded.result": "Yes"
  },
  {
    "molecule": "CCCCCCCCCCCC[N+](C)(C)CC(O)C(O)C(O)C(O)CO (stereo not drawn)",
    "recorded.result": "No"
  }
]

Exercise: I'd like to know its Compatible w/37% a.e. K + glyphosate at 12 wt % loading. The molecule in question is CCCCCCCCCCCCCCCCOCCOCCOCCOCCOCCOCCOCCOCCOCCOCCOCCOCCOCCOCCOCCOCCOCCOCCOCCOCCN(C)CC(O)CO (stereo not drawn)
Key: No

Exercise: I'd like to know its Compatible w/37% a.e. K + glyphosate at 12 wt % loading. The molecule in question is CCCCN(CCCC)CCCN
Key: Yes

Exercise: I'd like to know its Compatible w/37% a.e. K + glyphosate at 12 wt % loading. The molecule in question is CCCCCCCCCCCCCCCCCCN(C)CC(O)C(O)C(O)C(O)CO (stereo not drawn)
Key: Yes

Exercise: I'd like to know its Compatible w/37% a.e. K + glyphosate at 12 wt % loading. The molecule in question is CCCCCCCCCCCCCCCCOCCOCCOCCOCCOCCOCCOCCOCCOCCOCCOCCOCCOCCOCCOCCOCCOCCOCCOCCOCCN(C)CC(O)C(O)C(O)C(O)CO (stereo not drawn)
Key: No

Exercise: I'd like to know its Compatible w/37% a.e. K + glyphosate at 12 wt % loading. The molecule in question is CCCCCCN(CCCN(CCCCCC)CC(O)C(O)C(O)C(O)CO)CC(O)C(O)C(O)C(O)CO (stereo not drawn)
Key: Yes

---

assay: Compatibility of surfactant with diammonium glyphosate concentrate (no phase separation, 50° C., 1 week); format: physicochemical; details: 31 wt. % a.e. diammonium glyphosate/10 wt. % surfactant; 50° C. oven 1 week
readout.name: Compatible w/31% a.e. diammonium glyphosate at 10 wt % loading

[
  {
    "molecule": "CCCCCCCCNC(CO)(CO)CO [EEE]",
    "recorded.result": "Yes"
  },
  {
    "molecule": "CCCCCCCCCCCC[N+](C)(C)C [VVV]",
    "recorded.result": "Yes"
  },
  {
    "molecule": "CCCCCCN(CCCN(CCCCCC)CC(O)C(O)C(O)C(O)CO)CC(O)C(O)C(O)C(O)CO (stereo not shown) [Surfactant AAA, 1,6 hexylaminoglucitol propane]",
    "recorded.result": "Yes"
  },
  {
    "molecule": "CCCCCCCCCCCCCCCCOCCOCCOCCOCCOCCOCCOCCOCCOCCOCCN(C)CC(O)C(O)C(O)C(O)CO (stereo not shown) [OOO]",
    "recorded.result": "No"
  },
  {
    "molecule": "CCCCCCCCCCCCCCCCOCCOCCOCCOCCOCCOCCOCCOCCOCCOCCOCCOCCOCCOCCOCCOCCOCCOCCOCCOCCN(C)CC(O)C(O)C(O)C(O)CO (stereo not shown) [PPP]",
    "recorded.result": "No"
  },
  {
    "molecule": "CCCCCCCCCCCCOCCOCCOCCOCCN(C)C [HHH]",
    "recorded.result": "No"
  }
]

Exercise: I'd like to know its Compatible w/31% a.e. diammonium glyphosate at 10 wt % loading. The molecule in question is CCCCCCCCN(C)CC(O)C(O)C(O)C(O)CO (stereo not shown) [UU]
Key: No

Exercise: I'd like to know its Compatible w/31% a.e. diammonium glyphosate at 10 wt % loading. The molecule in question is CCCCCCCCCCCCCCCCOCCOCCOCCOCCOCCOCCOCCOCCOCCOCCOCCOCCOCCOCCOCCOCCOCCOCCOCCOCCN(C)CC(O)CO (stereo not shown) [QQQ]
Key: No

Exercise: I'd like to know its Compatible w/31% a.e. diammonium glyphosate at 10 wt % loading. The molecule in question is CCCCCCCCCCCCCCCCCCN(C)CCOCCOCCOCCOCCOCCOCCOC [Surfactant C]
Key: No

Exercise: I'd like to know its Compatible w/31% a.e. diammonium glyphosate at 10 wt % loading. The molecule in question is CCCCCCCCCCCCCCCCCC[N+](C)(C)CC(O)C(O)C(O)C(O)CO (stereo not shown) [YY]
Key: Yes
